# Tested on: SMMC-7721
# ASSAY_NOTES: Cytotoxicity against human SMMC7721 cells assessed as inhibition of growth incubated for 72 hrs by MTT assay
# Format: functional, cell-based
# TEST_CONTEXT: SMMC-7721, 72 h
pIC50: −log10 of the molar value. Counter-ions that a name gives are not always drawn.

# COMPOUND, RELATION_SYMBOL, pIC50
rows = [
    ("CCCC(=O)[C@@H](C)[C@H]1O[C@@](O)([C@H](C)C(=O)OC[C@H](C)[C@H]2CC[C@]3(C)C[C@@H]4[C@H](CO)C[C@@H](O)[C@H]4[C@@](C)(O)C/C=C/23)[C@H](C)C[C@H]1C", "=", 5.02),
    ("COc1cccc2c1C(=O)c1c(O)c3c(c(O)c1C2=O)C[C@@](O)(C(=O)CO)C[C@@H]3O[C@H]1C[C@H](N)[C@H](O)[C@H](C)O1 [DOXORUBICIN HYDROCHLORIDE]", "=", 5.66),
    ("CC(C)[C@@]1(O)CC[C@]2(C)C[C@@H]3[C@H](CO)C[C@@H](O)[C@H]3[C@@](C)(O)C/C=C\\21", "<", 4.00),
    ("CC(C)[C@H]1C[C@H](O)[C@]2(C)C[C@@H]3[C@H](CO)C[C@@H](O)[C@H]3[C@@](C)(O)C/C=C/12", "<", 4.00),
    ("CC(C)[C@H]1CC[C@]2(C)C[C@@H]3[C@H](CO)C[C@@H](O)[C@H]3[C@@](C)(O)C/C=C/12", "<", 4.00),
    ("CCC(=O)[C@@H](C)[C@H]1O[C@@](O)([C@H](C)C(=O)OC[C@H](C)[C@H]2CC[C@]3(C)C[C@@H]4[C@H](CO)C[C@@H](O)[C@H]4[C@@](C)(O)C/C=C/23)[C@H](C)C[C@H]1C", "=", 5.05),
    ("CCC(=O)[C@@H](C)[C@H]1O[C@@](O)([C@@H](C)C(=O)OC[C@H](C)[C@H]2CC[C@]3(C)C[C@@H]4[C@H](CO)C[C@@H](O)[C@H]4[C@@](C)(O)C/C=C/23)[C@H](C)C[C@H]1C", "=", 4.85),
    ("CC(C)[C@H]1C[C@@H](O)[C@]2(C)C[C@@H]3[C@H](CO)C[C@@H](O)[C@H]3[C@@](C)(O)C/C=C/12", "<", 4.00),
]

----------
Reported pIC50 by item:
# System: HeLa
# ASSAY_NOTES: Cytotoxicity against human HeLa cells assessed as inhibition of growth incubated for 72 hrs by MTT assay
# Type: functional, cell-based
pIC50: −log10 of the molar value.

# SMILES_NOTATION, RELATION_SYMBOL, pIC50
rows = [
    ("CC(C)[C@H]1C[C@@H](O)[C@]2(C)C[C@@H]3[C@H](CO)C[C@@H](O)[C@H]3[C@@](C)(O)C/C=C/12", "<", 4.00),
    ("CC(C)[C@H]1C[C@H](O)[C@]2(C)C[C@@H]3[C@H](CO)C[C@@H](O)[C@H]3[C@@](C)(O)C/C=C/12", "<", 4.00),
    ("CC(C)[C@H]1CC[C@]2(C)C[C@@H]3[C@H](CO)C[C@@H](O)[C@H]3[C@@](C)(O)C/C=C/12", "<", 4.00),
    ("CCCC(=O)[C@@H](C)[C@H]1O[C@@](O)([C@H](C)C(=O)OC[C@H](C)[C@H]2CC[C@]3(C)C[C@@H]4[C@H](CO)C[C@@H](O)[C@H]4[C@@](C)(O)C/C=C/23)[C@H](C)C[C@H]1C", "=", 5.12),
    ("CCC(=O)[C@@H](C)[C@H]1O[C@@](O)([C@H](C)C(=O)OC[C@H](C)[C@H]2CC[C@]3(C)C[C@@H]4[C@H](CO)C[C@@H](O)[C@H]4[C@@](C)(O)C/C=C/23)[C@H](C)C[C@H]1C", "=", 5.17),
    ("CC(C)[C@@]1(O)CC[C@]2(C)C[C@@H]3[C@H](CO)C[C@@H](O)[C@H]3[C@@](C)(O)C/C=C\\21", "<", 4.00),
    ("CCC(=O)[C@@H](C)[C@H]1O[C@@](O)([C@@H](C)C(=O)OC[C@H](C)[C@H]2CC[C@]3(C)C[C@@H]4[C@H](CO)C[C@@H](O)[C@H]4[C@@](C)(O)C/C=C/23)[C@H](C)C[C@H]1C", "=", 5.03),
]
